system: HCT-8 host cells (Hs18S); details: human, 41 h, 10 μM
Could you please report measured Hs18S ΔCT for the items listed next?
Quick one: just the number, no unit, thanks!

QUERY: What Hs18S ΔCT value was documented for this compound, COC(=O)CC1C(C)(C)C(OC(C)=O)[C@@H]2[C@@H](OC(C)=O)[C@]34O[C@@]2(O)[C@]1(C)C3CC[C@]1(C)C4=CC(=O)O[C@H]1c1ccoc1 (stereo partly shown) ?
RESULT: -0.48

QUERY: // query: COc1ccc2c(c1OC)OC[C@@H](c1ccc(OC)c(OC)c1OC)C2
RESULT: -0.22

QUERY: Also check C[C@@H]1[C@H](O)[C@@H](C)/C=C/C=C/C=C/C=C/C=C/C=C/C=C/[C@H](O[C@@H]2O[C@H](C)[C@@H](O)[C@H](N)[C@@H]2O)C[C@@H]2O[C@](O)(C[C@@H](O)C[C@@H](O)[C@H](O)CC[C@@H](O)C[C@@H](O)CC(=O)O[C@H]1C)C[C@H](O)[C@H]2C(=O)O
RESULT: 0.11

QUERY: COc1ccc(-c2coc3cc(O)ccc3c2=O)cc1 ?
RESULT: -0.62

QUERY: Then what about the compound O=C(CCc1ccc(O)cc1)c1c(O)cc(O)cc1O ?
RESULT: -0.15

QUERY: What do you get for C[C@H]1O[C@H](O[C@H]2[C@H](O)[C@@H](O)[C@@H](O[C@H]3[C@H](O)[C@@H](O)C(O)O[C@@H]3CO)O[C@@H]2CO)[C@H](O)[C@@H](O)[C@@H]1N[C@H]1C=C(CO)[C@@H](O)[C@H](O)[C@H]1O (stereo partly shown) ?
RESULT: 0.39

QUERY: Same for COc1ccc(-c2cc(=O)c3c(O)c(OC)c(OC)c(OC)c3o2)cc1
RESULT: 0.25

QUERY: Next: CC(C)/C(O)=C1/C(=O)O[C@@H](c2ccoc2)[C@]2(C)C(O)[C@@H](O)[C@@]34OC5(C)OC67CC(C)(C(O)[C@]6(O)[C@@H](O)[C@]3(O5)C12)[C@H](CC(=O)O)[C@]74C (stereo partly shown) [HYDROLYSIS PRODUCT OF BUSSEIN]
RESULT: -0.69

QUERY: Then CC1=C(/C=C/C(C)=C/C=C/C(C)=C/C=C/C=C(C)/C=C/C=C(C)/C=C/C2=C(C)C(=O)[C@@H](O)CC2(C)C)C(C)(C)C[C@H](O)C1=O ?
RESULT: -0.43

QUERY: Now this one: CC1=CCc2c(cc3oc(C)cc(=O)c3c2O)OC1
RESULT: -0.13

QUERY: Now consider CC12CCC(CC1)C(C)(C)O2 and answer again.
RESULT: -0.22

QUERY: Would you mind doing C=C1CCC2C(CC2(C)C)C(=O)CCC1O (stereo not shown) as well?
RESULT: -0.25

QUERY: Another: COC1=C[C@@H](C)[C@@H]2C[C@H]3OC(=O)C[C@H]4C(C)=C(OC)C(=O)[C@H]([C@@]2(C)C1=O)[C@@]34C
RESULT: 0.08

###

system: HCT-8 host cells (Hs18S); details: human, 41 h, 10 μM
readout kind: Hs18S ΔCT
Returns: the value as a bare number; no unit string appended.

QUERY: Entry COc1ccc2c(C)cc(=O)oc2c1 : reported Hs18S ΔCT = ?
RESULT: 0.26

QUERY: COC(=O)/C(=C1/OC(=O)C(c2ccccc2)=C1O)c1ccccc1 ?
RESULT: 0.64

QUERY: Also CCCCCCCCCCCCCCCC(=O)NCCO ?
RESULT: 0.05

QUERY: Another molecule: CC(C)=CCC/C(C)=C/CC/C(C)=C/CC/C(C)=C/CC1=C(C)C(=O)c2ccccc2C1=O
RESULT: 0.06

QUERY: Try the molecule COC(=O)C[C@H]1C2(C)CC34OC5(C)O[C@@]6([C@H](OC(C)=O)C(OC(C)=O)[C@]7(C)C(/C(=C(/O)C(C)C)C(=O)O[C@H]7c7ccoc7)[C@@]6(O5)[C@H](OC(C)=O)[C@@]3(O)C2OC(=O)C(C)C)[C@]14C (some centres unmarked)
RESULT: -0.33

QUERY: Moving on to the next molecule: CC(C)(c1ccc(O)cc1)c1ccc(O)cc1
RESULT: -0.20

QUERY: Thanks! And CC(C)=CCC1=C(O)C(=O)c2ccccc2C1=O ?
RESULT: -0.60

QUERY: // query: CCC(C)C(=O)O[C@@H]1C[C@@]2(C)[C@H](c3ccoc3)OC(=O)CC23OC2(C)O[C@]14[C@]1(C)[C@@H](CC(=O)OC)C5(C)CC1(O)[C@](O)(C5OC(=O)C1(C)OC1C)[C@@H](OC(C)=O)[C@]34O2 (some centres unmarked)
RESULT: 0.06
